Biological target: Solute carrier family 28 member 3 (Homo sapiens, UniProt Q9HAS3)
Sequence (Q9HAS3 whole entry): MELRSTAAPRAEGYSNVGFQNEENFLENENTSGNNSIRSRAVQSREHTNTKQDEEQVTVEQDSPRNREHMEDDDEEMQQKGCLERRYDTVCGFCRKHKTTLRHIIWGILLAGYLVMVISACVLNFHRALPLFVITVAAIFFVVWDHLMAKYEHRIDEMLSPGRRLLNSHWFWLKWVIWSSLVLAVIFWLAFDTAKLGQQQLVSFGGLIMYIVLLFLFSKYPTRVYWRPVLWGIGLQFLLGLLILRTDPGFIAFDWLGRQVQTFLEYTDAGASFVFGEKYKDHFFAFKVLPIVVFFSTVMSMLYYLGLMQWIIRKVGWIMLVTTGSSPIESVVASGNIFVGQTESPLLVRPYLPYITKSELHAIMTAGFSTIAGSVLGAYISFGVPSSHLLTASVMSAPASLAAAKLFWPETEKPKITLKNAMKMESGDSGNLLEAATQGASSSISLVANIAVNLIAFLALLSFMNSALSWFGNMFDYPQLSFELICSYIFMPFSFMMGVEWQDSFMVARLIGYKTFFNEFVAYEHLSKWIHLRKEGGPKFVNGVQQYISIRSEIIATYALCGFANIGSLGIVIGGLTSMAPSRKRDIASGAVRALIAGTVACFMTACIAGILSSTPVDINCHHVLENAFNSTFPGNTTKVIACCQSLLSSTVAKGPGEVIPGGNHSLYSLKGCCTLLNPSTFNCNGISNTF
Experiment: Binding affinity to human recombinant CNT3 expressed in pig PK15NTD cells assessed as [3H]uridine uptake by beta-scintillation counter
pKi: −log10 of the molar value.
measurement_kind: pKi

• OC[C@H]1O[C@@H](Oc2cc(O)cc(O)c2CCCc2ccc(O)cc2)[C@H](O)[C@@H](O)[C@@H]1O = 4.91
• O=C(CCc1ccc(O)cc1)c1c(O)cc(O)cc1O = 4.49
• O=C(CCc1ccc(O)cc1)c1c(O)cc(O)cc1O[C@@H]1O[C@H](CO)[C@@H](O)[C@H](O)[C@H]1O = 4.80
• O=[N+]([O-])c1ccc(CSc2ncnc3c2ncn3[C@@H]2O[C@H](CO)[C@@H](O)[C@H]2O)cc1 [NITROBENZYLMERCAPTOPURINE RIBONUCLEOSIDE] = 4.06
• CC(=O)c1c(O)cc(O)cc1O[C@H]1O[C@H](CO)[C@@H](O)[C@H](O)[C@H]1O = 4.51

* * *

Biological target: Sodium/nucleoside cotransporter 1 (Homo sapiens)
Sequence (O00337 whole entry): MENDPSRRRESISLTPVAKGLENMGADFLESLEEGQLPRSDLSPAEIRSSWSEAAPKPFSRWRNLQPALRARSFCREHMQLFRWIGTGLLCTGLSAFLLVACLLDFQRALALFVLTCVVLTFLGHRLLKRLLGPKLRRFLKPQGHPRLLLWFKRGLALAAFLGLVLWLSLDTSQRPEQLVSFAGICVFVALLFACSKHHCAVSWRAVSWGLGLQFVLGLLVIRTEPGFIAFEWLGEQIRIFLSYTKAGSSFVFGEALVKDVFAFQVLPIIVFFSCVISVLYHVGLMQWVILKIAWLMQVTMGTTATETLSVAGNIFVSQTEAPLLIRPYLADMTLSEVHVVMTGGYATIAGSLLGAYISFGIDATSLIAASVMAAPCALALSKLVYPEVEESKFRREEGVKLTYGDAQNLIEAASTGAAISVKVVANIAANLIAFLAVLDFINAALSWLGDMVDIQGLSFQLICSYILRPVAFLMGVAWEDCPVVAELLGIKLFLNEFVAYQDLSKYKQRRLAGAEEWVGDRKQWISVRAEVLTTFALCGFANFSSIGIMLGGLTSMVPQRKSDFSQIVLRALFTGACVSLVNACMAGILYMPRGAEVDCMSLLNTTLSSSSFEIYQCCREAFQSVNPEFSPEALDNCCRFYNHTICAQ
pIC50: −log10 of the molar value.
measurement_kind: pIC50

- O=C(CCc1ccc(O)cc1)c1c(O)cc(O)cc1O[C@@H]1O[C@H](CO)[C@@H](O)[C@H](O)[C@H]1O [PHLORIZIN]: 3.60
